Cited source: patent US20250009801A1

Biological target: T1, human Claudin18.2-His (Acro, CL2-H5546) (human, UniProt P56856-2 1-261)
T1 construct: Bought reagent, amine-coupled to a CM5 chip; also called recombinant human CLDN18.2 protein; not shown: His tag
Assay: SPR (Biacore T200), Claudin18.2-His coupled on CM5 chip, antibody in the mobile phase (avidity)
METRIC: pKd
# pKd = -log10(concentration in molar units)

Below: 2 binders and their reported pKd.
1. Hz3G3 PG Ab (antibody, human IgG1, kappa, V domains shown, also called G3 PG antibody; G3 antibody) VH: QVQLVQSGAEVKKPGASVKVSCKASGYSFTTYWMHWVRQAPGQGLEWMGLIDPSDSETRLNQKFKDRVTMTVDTSTSTVYMELSSLRSEDTAVYYCASNRWLLGWGQGTLVTVSS VL: DIVMTQSPDSLAVSLGERATINCKSSQSLLNSGNQKNYLTWYQQKPGQPPKLLIYWASTRESGVPDRFSGSGSGTDFTLTISSLQAEDVAVYYCQNDYSYPLTFGQGTKLEIKR | 8.60
2. Hz69H9-1.2 PG Ab (antibody, human IgG1, kappa, V domains shown, Mutant of the parent Hz69H9 with point mutations in VH or VL; also called H9-1.2 PG antibody) VH: QVQLVQSGAEVKKPGSSVKVSCKASGYSFSSYNIHWVRQAPGQGLEWMGYIAPFQGDARYNQKFKGRVTITADKSTSTAYMELSSLRSEDTAVYYCARLNRGQSLDYWGQGTLVTVSS VL: DIVMTQSPDSLAVSLGERATINCKSSQSLFNAGNQRNYLTWYQQKPGQPPKLLIYWASTRESGVPDRFSGSGSGTDFTLTISSLQAEDVAVYYCQNNYIYPLTFGGGTKVEIKR | 9.01

Q: I'd like to know its pKd. The binder in question is Hz69H9-SA PG Ab (antibody, human IgG1, kappa, V domains shown, Mutant of the parent Hz69H9 with point mutations in VH or VL; also called H9-SA PG antibody) VH: QVQLVQSGAEVKKPGSSVKVSCKASGYSFSSYNISWVRQAPGQGLEWMGYIAPFQGDARYNQKFKGRVTITADKSTSTAYMELSSLRSEDTAVYYCARLNRGNSLDYWGQGTLVTVSS VL: DIVMTQSPDSLAVSLGERATINCKSSQSLFNSGNQRNYLTWYQQKPGQPPKLLIYWASTRESGVPDRFSGSGSGTDFTLTISSLQAEDVAVYYCQNNYIYPLTFGGGTKVEIKR
Result: 9.49
